Target: MCT4 (Homo sapiens (Human))
Assay: MCT4-mediated lactate transport in MDA-MB-231 breast cancer cells
Format: cell-based
Settings: MDA-MB-231 cells, native MCT4; 50 mM L-lactate
Measured parameter: IC50 (nM)

Query :: Would you mind telling me what IC50 value was observed for `CNc1cccc(-c2cc(COC(C)(C)C(=O)O)nn2Cc2ccccc2Cl)c1` ?
Result :: 220

A. COc1cccc(-c2cc(COC(C)(C)C(=O)O)nn2Cc2ccccc2Br)c1
B. CC(C)CNc1cccc(-c2cc(COC(C)(C)C(=O)O)nn2Cc2ccccc2Cl)c1
C. CC(C)(OCc1cc(-c2cccs2)n(Cc2ccccc2Cl)n1)C(=O)O
D. CC(C)(OCc1cc(-c2cscn2)n(Cc2ccccc2Cl)n1)C(=O)O
Query :: Rank by IC50 (largest to smallest). Provide your answer as the labels ordered per the instruction.
Result :: D, C, B, A

* * *

Biological target: MCT4 (Homo sapiens (Human), UniProt O15427)
Sequence (O15427 whole entry, looked up): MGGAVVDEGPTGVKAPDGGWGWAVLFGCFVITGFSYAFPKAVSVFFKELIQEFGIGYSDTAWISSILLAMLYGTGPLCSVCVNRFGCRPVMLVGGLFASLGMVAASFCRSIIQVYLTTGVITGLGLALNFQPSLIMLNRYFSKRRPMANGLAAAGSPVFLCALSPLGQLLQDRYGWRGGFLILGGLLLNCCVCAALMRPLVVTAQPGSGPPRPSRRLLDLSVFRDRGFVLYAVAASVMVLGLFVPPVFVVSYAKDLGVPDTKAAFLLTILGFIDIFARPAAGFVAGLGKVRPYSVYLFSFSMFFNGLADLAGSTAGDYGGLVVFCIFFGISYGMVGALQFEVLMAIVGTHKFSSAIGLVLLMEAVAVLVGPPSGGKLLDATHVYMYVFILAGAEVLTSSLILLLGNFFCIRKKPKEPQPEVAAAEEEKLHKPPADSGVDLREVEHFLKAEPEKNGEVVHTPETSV
Sequence (P35613 whole entry partner, looked up): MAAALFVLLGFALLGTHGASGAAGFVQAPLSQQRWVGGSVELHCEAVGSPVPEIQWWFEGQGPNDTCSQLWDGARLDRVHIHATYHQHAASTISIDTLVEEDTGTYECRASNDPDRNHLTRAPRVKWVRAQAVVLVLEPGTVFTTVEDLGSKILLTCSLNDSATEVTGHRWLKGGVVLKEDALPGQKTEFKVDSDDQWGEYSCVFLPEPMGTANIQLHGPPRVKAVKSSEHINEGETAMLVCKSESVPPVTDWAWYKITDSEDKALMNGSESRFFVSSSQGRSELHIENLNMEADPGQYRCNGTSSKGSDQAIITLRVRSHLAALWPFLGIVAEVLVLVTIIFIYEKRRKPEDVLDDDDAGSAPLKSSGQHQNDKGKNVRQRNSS
Assay: MCT4-mediated lactate transport in MDA-MB-231 breast cancer cells
Assay type: cell-based
Details: MDA-MB-231 cells, native MCT4; 50 mM L-lactate
Measured parameter: IC50 (nM)

Query :: Under MCT4 (Homo sapiens (Human), UniProt O15427): IC50 value of `CC(C)COc1cccc(-c2cc(COC(C)(C)C(=O)O)nn2Cc2ccccc2)c1` ?
Result :: 13

Query :: Same for `CC(C)(OCc1cc(-c2cccc(OCC3CC3)c2)n(Cc2ccccc2Cl)n1)C(=O)O`
Result :: 3.2

a. CCOc1cccc(-c2cc(COC(C)(C)C(=O)O)nn2Cc2ccccc2Cl)c1
b. COc1ccccc1Cn1nc(COC(C)(C)C(=O)O)cc1-c1cccc(OCC(C)C)c1
Query :: Pick one: a or b . Which one has the lower reported IC50? Answer by stating the label of the chosen item.
Result :: b

* * *

Molecular target: MCT4 (Homo sapiens (Human), UniProt O15427)
Test: MCT4-mediated lactate transport in NCI-H358 lung adenocarcinoma cells
Format: cell-based
Conditions: native MCT4, 50 mM L-lactate
Measured parameter: IC50 (nM)

Query :: Would you mind telling me what IC50 value was observed for CC(C)(OCc1cc(-c2ccc(Cl)cc2)n(Cc2cccnc2)n1)C(=O)O [Example 23] ?
Result :: 2100

Query :: Same for O=C(O)C1(OCc2cc(-c3ccc(Cl)cc3)n(Cc3ccccc3Cl)n2)CC1 [Example 17]
Result :: 860

Query :: Same for Cc1cccc(-c2cc(COC(C)(C)C(=O)O)nn2Cc2ccccc2Cl)c1 [Example 11]
Result :: 25

Query :: Same for CC(C)(OCc1cc(-c2ccc(F)cc2)n(Cc2ccccc2Cl)n1)C(=O)O [Example 4]
Result :: 54

Query :: Same for CC(C)(OCc1cc(-c2ccccc2)n(Cc2ccccc2Cl)n1)C(=O)O [Example 8]
Result :: 81

a. CC(C)(OCc1cc(-c2cccc(Cl)c2)n(Cc2ccccc2Cl)n1)C(=O)O [Example 10]
b. CC(C)(OCc1cc(-c2ccc(Cl)cc2)n(Cc2ccccc2Cl)n1)C(N)=O [Example 20]
c. CC(C)(OCc1cc(-c2ccc(Cl)cc2)n(Cc2ccccc2Cl)n1)C(=O)O [Example 3]
d. CC(C)(OCc1cc(-c2ccc(Cl)cc2)n(Cc2ccccn2)n1)C(=O)O [Example 22]
Query :: Rank by IC50 (largest to smallest). Provide your answer as the labels ordered per the instruction.
Result :: d, b, c, a
(d: 39000 nM, b: 22000 nM, c: 60 nM, a: 33 nM)
